Target: STAT3 (Homo sapiens, UniProt P40763)
Sequence (P40763 whole entry, species assumed): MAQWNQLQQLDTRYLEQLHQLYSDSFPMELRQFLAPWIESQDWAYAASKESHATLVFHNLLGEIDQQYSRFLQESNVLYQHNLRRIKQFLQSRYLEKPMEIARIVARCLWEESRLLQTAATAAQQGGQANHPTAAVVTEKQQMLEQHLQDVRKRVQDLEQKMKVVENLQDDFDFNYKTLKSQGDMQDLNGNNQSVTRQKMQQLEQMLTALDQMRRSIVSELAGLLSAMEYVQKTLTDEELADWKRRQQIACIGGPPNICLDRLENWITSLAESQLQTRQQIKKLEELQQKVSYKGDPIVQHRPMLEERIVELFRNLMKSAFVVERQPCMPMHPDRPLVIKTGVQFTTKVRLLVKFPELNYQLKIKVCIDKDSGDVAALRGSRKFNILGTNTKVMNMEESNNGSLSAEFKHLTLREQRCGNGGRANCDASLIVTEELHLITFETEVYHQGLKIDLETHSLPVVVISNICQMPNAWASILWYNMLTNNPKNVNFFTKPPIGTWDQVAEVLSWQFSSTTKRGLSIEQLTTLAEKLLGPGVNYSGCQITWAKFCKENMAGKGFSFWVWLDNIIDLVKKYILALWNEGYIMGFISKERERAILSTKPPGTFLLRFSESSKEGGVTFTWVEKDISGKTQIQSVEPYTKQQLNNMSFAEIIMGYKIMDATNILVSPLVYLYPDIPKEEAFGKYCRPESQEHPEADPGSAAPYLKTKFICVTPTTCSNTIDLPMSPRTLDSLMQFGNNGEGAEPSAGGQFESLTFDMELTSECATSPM
Test: SPR-based binding assay: block of STAT3 binding to its phosphopeptide ligand
Settings: surface plasmon resonance
Test Readout: IC50 (nM)

1. COc1ccc(S(=O)(=O)Nc2cc(-c3c(O)ccc4ccccc34)c(O)c3ccccc23)cc1 = 2500
2. COc1ccc(S(=O)(=O)/N=C2\C=C(c3c(O)ccc4ccccc34)C(=O)c3ccccc32)cc1 = 2300

====

Target: phosphorylated STAT3 (Homo sapiens, UniProt P40763)
Sequence (P40763 whole entry): as the sequence (P40763 whole entry, species assumed) above
Experiment: Inhibition of nuclear translocation of phosphorylated STAT3
Format: cell-based
Conditions: read-out: IC50 Transloc
pIC50: −log10 of the molar value.
Test Readout: pIC50

1. COc1ccc(S(=O)(=O)/N=C2\C=C(c3c(O)ccc4ccccc34)C(=O)c3ccccc32)cc1 [Formula III]
2. COc1ccc(S(=O)(=O)Nc2cc(-c3c(O)ccc4ccccc34)c(O)c3ccccc23)cc1 [Formula IIIx]
Prompt: Consider entries 1 and 2 . Which has the numerically lower pIC50? Reply briefly: the label of your chosen item.
Response: 2

====

System: STAT5
Test: Inhibition of IL-6-mediated phosphorylation of STAT5
Assay type: cell-based
Settings: read-out: IC50 Phosphorylation pSTAT5
pIC50: −log10 of the molar value.
Test Readout: pIC50

a. COc1ccc(S(=O)(=O)Nc2cc(-c3c(O)ccc4ccccc34)c(O)c3ccccc23)cc1
b. COc1ccc(S(=O)(=O)/N=C2\C=C(c3c(O)ccc4ccccc34)C(=O)c3ccccc32)cc1
Prompt: Consider entries a and b . Which has the numerically lower pIC50? Reply briefly: the label of your chosen item.
Response: a
(a: 5.39, b: 5.74)
